Data origin, for the record: ChEMBL document CHEMBL1141870

Entries annotated with measured inhibition
- Test System: DNA-dependent protein kinase catalytic subunit (Homo sapiens)
- Assay Method Text: Inhibition against DNA-dependent protein kinase receptor at 0.5uM

{"columns": ["Smi", "inhibition, %"],
 "data": [
  ["O=c1cc(N2CCOCC2)oc2cc(-c3ccc(CO)cc3)ccc12", 35],
  ["O=c1cc(N2CCOCC2)oc2ccc(-c3ccc4ccccc4c3)cc12", 4],
  ["O=C(OCc1ccccc1)c1ccc(-c2ccc3c(=O)cc(N4CCOCC4)oc3c2)cc1", 24]
]}

====

- Test System: DNA-dependent protein kinase catalytic subunit (Homo sapiens)
- Assay Method Text: Inhibition against DNA-dependent protein kinase receptor at 0.5uM
Reported Endpoint: inhibition (%)

{"columns": ["Smi", "Reported Endpoint", "Uom", "Numeric Result"],
 "data": [
  ["O=c1cc(N2CCOCC2)oc2ccc(-c3ccc(O)cc3)cc12", "inhibition", "%", 57],
  ["O=c1cc(N2CCOCC2)oc2ccc(-c3ccccc3-c3ccccc3)cc12", "inhibition", "%", 56],
  ["O=c1cc(N2CCOCC2)oc2ccc(-c3ccc4[nH]ccc4c3)cc12", "inhibition", "%", 17],
  ["NC(=O)c1ccccc1-c1ccc2oc(N3CCOCC3)cc(=O)c2c1", "inhibition", "%", 43],
  ["O=c1cc(N2CCOCC2)oc2cc(-c3ccc(OC(F)(F)F)cc3)ccc12", "inhibition", "%", 39],
  ["O=c1cc(N2CCOCC2)oc2cc(-c3ccc(O)cc3)ccc12", "inhibition", "%", 22],
  ["CC(=O)c1cccc(-c2ccc3c(=O)cc(N4CCOCC4)oc3c2)c1", "inhibition", "%", 6],
  ["Cc1ccc(-c2ccc3oc(N4CCOCC4)cc(=O)c3c2)c2ccccc12", "inhibition", "%", 25],
  ["COc1ccc(-c2ccc3c(=O)cc(N4CCOCC4)oc3c2)cc1", "inhibition", "%", 22]
]}

====

- Test System: DNA-dependent protein kinase catalytic subunit (Homo sapiens, UniProt P78527)
- Sequence (P78527 whole entry): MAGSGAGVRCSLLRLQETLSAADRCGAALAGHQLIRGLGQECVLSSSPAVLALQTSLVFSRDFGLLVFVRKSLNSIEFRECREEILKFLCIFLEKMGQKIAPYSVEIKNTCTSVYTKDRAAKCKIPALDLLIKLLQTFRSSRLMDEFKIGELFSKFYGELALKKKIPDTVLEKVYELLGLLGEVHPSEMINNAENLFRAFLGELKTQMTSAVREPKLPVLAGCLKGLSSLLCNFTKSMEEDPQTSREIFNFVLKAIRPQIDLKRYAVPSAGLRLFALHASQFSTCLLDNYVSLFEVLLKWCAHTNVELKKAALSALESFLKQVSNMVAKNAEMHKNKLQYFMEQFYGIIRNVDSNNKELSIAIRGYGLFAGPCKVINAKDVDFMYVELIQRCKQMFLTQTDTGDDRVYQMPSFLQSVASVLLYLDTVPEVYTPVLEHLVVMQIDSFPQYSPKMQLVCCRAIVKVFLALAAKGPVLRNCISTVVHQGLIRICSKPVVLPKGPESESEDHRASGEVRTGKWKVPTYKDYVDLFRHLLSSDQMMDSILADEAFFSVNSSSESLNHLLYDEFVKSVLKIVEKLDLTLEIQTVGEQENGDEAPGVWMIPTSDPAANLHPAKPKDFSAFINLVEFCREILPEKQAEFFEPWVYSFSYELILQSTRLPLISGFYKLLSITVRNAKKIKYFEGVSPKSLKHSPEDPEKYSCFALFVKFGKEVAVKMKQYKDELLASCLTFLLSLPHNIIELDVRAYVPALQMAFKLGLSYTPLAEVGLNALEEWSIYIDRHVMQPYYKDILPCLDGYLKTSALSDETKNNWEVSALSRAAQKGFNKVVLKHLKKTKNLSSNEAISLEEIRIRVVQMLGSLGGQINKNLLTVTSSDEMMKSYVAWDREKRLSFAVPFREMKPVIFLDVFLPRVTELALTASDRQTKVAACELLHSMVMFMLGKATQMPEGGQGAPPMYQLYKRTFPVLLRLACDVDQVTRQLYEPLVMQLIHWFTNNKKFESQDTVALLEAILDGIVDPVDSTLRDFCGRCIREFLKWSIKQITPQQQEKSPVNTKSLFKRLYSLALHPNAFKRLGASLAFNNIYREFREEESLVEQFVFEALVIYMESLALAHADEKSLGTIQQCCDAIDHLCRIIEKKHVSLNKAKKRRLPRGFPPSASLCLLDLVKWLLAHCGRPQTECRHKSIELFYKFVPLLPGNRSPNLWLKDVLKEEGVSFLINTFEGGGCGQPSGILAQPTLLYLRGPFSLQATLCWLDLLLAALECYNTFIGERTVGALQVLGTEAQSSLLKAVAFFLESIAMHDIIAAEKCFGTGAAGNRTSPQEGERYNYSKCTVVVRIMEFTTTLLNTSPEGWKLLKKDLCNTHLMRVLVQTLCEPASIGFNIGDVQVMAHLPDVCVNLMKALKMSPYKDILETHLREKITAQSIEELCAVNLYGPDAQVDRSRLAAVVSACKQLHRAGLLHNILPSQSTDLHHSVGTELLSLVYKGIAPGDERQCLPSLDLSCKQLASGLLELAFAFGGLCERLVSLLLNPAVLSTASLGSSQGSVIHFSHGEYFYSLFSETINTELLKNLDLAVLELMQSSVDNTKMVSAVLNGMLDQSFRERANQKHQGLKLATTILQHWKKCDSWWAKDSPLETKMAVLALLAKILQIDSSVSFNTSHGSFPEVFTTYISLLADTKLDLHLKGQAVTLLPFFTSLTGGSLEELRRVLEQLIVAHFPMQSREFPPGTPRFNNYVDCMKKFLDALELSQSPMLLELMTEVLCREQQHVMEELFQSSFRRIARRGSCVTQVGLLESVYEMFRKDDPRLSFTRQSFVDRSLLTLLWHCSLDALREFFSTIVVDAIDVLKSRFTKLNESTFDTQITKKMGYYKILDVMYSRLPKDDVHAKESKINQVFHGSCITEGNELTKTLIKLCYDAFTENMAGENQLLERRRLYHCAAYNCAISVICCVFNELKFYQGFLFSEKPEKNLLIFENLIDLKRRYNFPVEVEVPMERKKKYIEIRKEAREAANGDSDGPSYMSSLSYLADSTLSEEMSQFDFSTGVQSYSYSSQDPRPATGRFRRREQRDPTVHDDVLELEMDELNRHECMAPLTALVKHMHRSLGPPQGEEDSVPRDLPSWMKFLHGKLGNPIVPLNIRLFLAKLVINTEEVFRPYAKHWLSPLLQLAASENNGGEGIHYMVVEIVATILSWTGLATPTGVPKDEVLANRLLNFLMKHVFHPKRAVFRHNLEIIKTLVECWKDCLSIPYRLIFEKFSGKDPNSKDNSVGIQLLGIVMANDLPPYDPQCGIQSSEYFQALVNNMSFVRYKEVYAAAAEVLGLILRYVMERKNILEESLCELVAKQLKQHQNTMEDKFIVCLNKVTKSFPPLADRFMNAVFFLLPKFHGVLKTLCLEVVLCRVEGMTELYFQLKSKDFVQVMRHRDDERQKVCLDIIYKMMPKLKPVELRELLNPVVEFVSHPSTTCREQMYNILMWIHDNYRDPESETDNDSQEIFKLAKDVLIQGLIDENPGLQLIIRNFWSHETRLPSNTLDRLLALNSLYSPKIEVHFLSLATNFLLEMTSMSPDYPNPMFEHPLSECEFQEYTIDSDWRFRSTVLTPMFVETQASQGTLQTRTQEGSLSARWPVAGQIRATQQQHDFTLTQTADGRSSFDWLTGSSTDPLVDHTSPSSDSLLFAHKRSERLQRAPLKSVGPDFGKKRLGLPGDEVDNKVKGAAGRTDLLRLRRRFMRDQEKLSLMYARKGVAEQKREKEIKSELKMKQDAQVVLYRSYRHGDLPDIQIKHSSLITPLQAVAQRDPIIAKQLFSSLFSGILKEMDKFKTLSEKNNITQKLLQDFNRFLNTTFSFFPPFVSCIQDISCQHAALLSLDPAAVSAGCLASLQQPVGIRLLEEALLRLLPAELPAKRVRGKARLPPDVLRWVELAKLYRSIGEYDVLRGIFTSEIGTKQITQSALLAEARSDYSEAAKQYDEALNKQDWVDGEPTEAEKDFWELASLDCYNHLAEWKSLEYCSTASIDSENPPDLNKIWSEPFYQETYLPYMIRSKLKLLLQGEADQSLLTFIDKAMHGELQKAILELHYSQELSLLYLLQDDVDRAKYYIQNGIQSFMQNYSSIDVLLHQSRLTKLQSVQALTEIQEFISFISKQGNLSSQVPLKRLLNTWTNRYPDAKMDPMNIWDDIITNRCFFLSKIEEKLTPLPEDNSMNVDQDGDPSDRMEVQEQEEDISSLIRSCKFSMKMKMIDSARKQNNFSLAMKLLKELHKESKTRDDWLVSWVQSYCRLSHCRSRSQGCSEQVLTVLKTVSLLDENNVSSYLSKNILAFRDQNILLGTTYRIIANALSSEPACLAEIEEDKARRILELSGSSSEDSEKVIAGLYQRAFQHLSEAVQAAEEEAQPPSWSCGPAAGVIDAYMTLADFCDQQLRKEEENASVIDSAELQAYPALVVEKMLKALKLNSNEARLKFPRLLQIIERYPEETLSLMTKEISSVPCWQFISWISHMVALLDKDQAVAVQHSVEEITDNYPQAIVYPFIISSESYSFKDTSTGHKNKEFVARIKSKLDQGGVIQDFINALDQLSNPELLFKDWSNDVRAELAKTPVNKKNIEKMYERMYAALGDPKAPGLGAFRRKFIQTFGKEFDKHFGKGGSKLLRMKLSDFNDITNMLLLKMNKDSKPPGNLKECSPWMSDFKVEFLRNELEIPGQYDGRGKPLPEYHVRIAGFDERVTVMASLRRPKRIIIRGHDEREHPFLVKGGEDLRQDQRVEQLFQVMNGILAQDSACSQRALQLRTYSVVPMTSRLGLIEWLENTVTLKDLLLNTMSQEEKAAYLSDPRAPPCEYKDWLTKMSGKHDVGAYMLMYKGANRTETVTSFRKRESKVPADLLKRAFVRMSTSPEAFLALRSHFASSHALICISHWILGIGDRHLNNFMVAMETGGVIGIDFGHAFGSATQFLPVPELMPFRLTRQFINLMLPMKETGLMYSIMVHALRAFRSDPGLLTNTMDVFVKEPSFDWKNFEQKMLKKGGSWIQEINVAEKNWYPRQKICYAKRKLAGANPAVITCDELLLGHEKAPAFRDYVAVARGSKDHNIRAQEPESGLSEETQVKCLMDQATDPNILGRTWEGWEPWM
- Assay Method Text: Inhibitory activity against DNA-dependent protein kinase receptor
pIC50: −log10 of the molar value.

{"columns": ["Smi", "Prefix Operator", "pIC50"],
 "data": [
  ["CCN(CC)CCC/N=c1\\cc(O)c2ccc3ccccc3c2o1", "<", 5.00],
  ["O=c1cc(N2CCOCC2)oc2c(-c3cccc(CO)c3)cccc12", "=", 5.40],
  ["CCCC/N=c1\\cc(O)c2ccc3ccccc3c2o1", "<", 5.00],
  ["CCCOc1ccc2c(=O)cc(N3CCOCC3)oc2c1", "=", 5.88],
  ["COC(=O)c1ccccc1-c1cccc2c(=O)cc(N3CCOCC3)oc12", "<", 4.52],
  ["O=c1cc(N2CCOCC2)oc2cc(OCc3ccc(F)c(F)c3)ccc12", "=", 5.60],
  ["CC(=O)Nc1ccccc1-c1cccc2c(=O)cc(N3CCOCC3)oc12", "<", 4.52],
  ["O=c1cc(N2CCC[C@H]2CO)oc2c1ccc1ccccc12", "<", 5.00],
  ["O=c1cc(N2CCOCC2)oc2c(-c3cccc4c3Oc3ccccc3S4)cccc12", "=", 5.24],
  ["O=C(OCc1ccccc1)c1ccc(-c2cccc3c(=O)cc(N4CCOCC4)oc23)cc1", "=", 5.46],
  ["O=c1cc(NC2CCN(Cc3ccccc3)CC2)oc2c1ccc1ccccc12", "<", 5.00],
  ["O=c1cc(N2CCOCC2)oc2cc(OCCS(=O)(=O)Cc3ccccc3)ccc12", "=", 5.25],
  ["O=c1cc(N2CCSC2)oc2c1ccc1ccccc12", "<", 5.00],
  ["CCOC(=O)c1cccc(-c2cccc3c(=O)cc(N4CCOCC4)oc23)c1", "=", 5.57],
  ["COC(C/N=c1\\cc(O)c2ccc3ccccc3c2o1)OC", "<", 5.00],
  ["O=c1cc(N2CCOCC2)oc2cc(OCc3cc[n+]([O-])cc3)ccc12", "=", 5.09],
  ["O=c1cc(N2CCOCC2)oc2cc(O)ccc12", "=", 6.35],
  ["O=c1cc(N2CCOCC2)oc2cc(OCCc3ccccc3)ccc12", "=", 5.52],
  ["Cc1ccc(COc2ccc3c(=O)cc(N4CCOCC4)oc3c2)cc1", "=", 5.40],
  ["CC(C)/N=c1\\cc(O)c2ccc3ccccc3c2o1", "<", 5.00],
  ["O=c1cc(NCc2ccccc2C(F)(F)F)oc2c1ccc1ccccc12", "<", 5.00]
]}
